List of Pseudaletia separate Walker Mortality (%) 500 ppm values.
- Test system: Pseudaletia separate Walker
- Assay Explanation: Insecticidal activities to armyworm, leaf dipping and feeding
- Type: in vivo
- Stated Conditions: in vivo
Just the number in %, nothing appended.

The cases that follow already have their Pseudaletia separate Walker Mortality (%) 500 ppm on record.
Smiles Code	Units Symbol	Result
C[N+]1=C(C(=Cc2sc(Br)cc2Br)[N+](=O)[O-])N(Cc2ccc(Cl)nc2)CC1.[Cl-]	%	100
N#CC(=Cc1cc(Br)c(Br)o1)C1=NCCN1Cc1ccc(Cl)nc1	%	90
CCc1ccc(C(C)=C(C2=NCCN2Cc2ccc(Cl)nc2)[N+](=O)[O-])o1	%	79

Give the measured Pseudaletia separate Walker Mortality (%) 500 ppm of C[N+]1=C(C(=Cc2ccc(Br)o2)[N+](=O)[O-])N(Cc2cnc(Cl)s2)CC1.[Cl-] .
100

Next up: CCc1ccc(C=C(C2=NCCCN2Cc2ccc(Cl)nc2)[N+](=O)[O-])o1
86

Next up: CC[N+]1=C(C(=Cc2cccs2)[N+](=O)[O-])N(Cc2ccc(Cl)nc2)CC1.[Cl-]
100

Next up: O=[N+]([O-])C(=Cc1cc(Cl)co1)C1=NCCCN1Cc1ccc(Cl)nc1
100

Next up: O=[N+]([O-])C(=Cc1cc(Cl)c(Cl)o1)C1=NCCCN1Cc1ccc(Cl)nc1
100

---

List of Pseudaletia separate Walker Mortality (%) 500 ppm values.
- Test system: Pseudaletia separate Walker
- Assay Explanation: Insecticidal activities to armyworm, leaf dipping and feeding
- Format: in vivo
- Stated Conditions: in vivo
Just the number in %, nothing appended.

The cases that follow already have their Pseudaletia separate Walker Mortality (%) 500 ppm on record.
Compound	Measured On	Result
O=[N+]([O-])C(=Cc1ccoc1)C1=NCCN1Cc1cnc(Cl)s1 [Compound 69]	Pseudaletia separate Walker	100
O=[N+]([O-])C(=Cc1ccc(CO)o1)C1=NCCN1Cc1cnc(Cl)s1 [Compound 82]	Pseudaletia separate Walker	100
O=[N+]([O-])C(=Cc1oc(Cl)cc1Cl)C1=NCCN1Cc1ccccc1 [Compound 109]	Pseudaletia separate Walker	60
O=[N+]([O-])C(=Cc1oc(Cl)cc1Cl)C1=NCCN1Cc1cnc(Cl)s1 [Compound 76]	Pseudaletia separate Walker	100
C[N+]1=C(C(=Cc2cc(Cl)cs2)[N+](=O)[O-])N(Cc2ccc(Cl)nc2)CC1.[Cl-] [Compound 264]	Pseudaletia separate Walker	100
C[N+]1=C(C(=Cc2ccc([N+](=O)[O-])o2)[N+](=O)[O-])N(Cc2ccc(Cl)nc2)CC1.[Cl-] [Compound 246]	Pseudaletia separate Walker	100
O=[N+]([O-])C(=Cc1ccc([N+](=O)[O-])s1)C1=NCCN1Cc1cnc(Cl)s1 [Compound 85]	Pseudaletia separate Walker	100
O=[N+]([O-])C(=Cc1cc(Cl)co1)C1=NCCN1Cc1ccccc1 [Compound 106]	Pseudaletia separate Walker	59
O=[N+]([O-])C(=Cc1ccc(CO)o1)C1=NCCN1CC1CCOC1 (centres unmarked) [Compound 102]	Pseudaletia separate Walker	89
CC(c1ccc(Cl)nc1)N1CCN=C1C(=Cc1ccc(Cl)s1)[N+](=O)[O-] (racemic) [Compound 130]	Pseudaletia separate Walker	100

// below: Pseudaletia separate Walker Mortality (%) 500 ppm requested for another compound
Give the measured Pseudaletia separate Walker Mortality (%) 500 ppm of N#CC(=Cc1ccco1)C1=NCCN1Cc1ccc(Cl)nc1 [Compound 140] .
100

---

- System: Aphis craccivoral
- Assay Explanation: Insecticidal activities to aphids, immersion method
- Type: in vivo
- Stated Conditions: in vivo
List of Aphis craccivoral Mortality (%) 500 ppm values.
Just the number in %, nothing appended.

The cases that follow already have their Aphis craccivoral Mortality (%) 500 ppm on record.
Compound	Measured On	Result
O=[N+]([O-])C(=Cc1cc(Cl)c(Cl)o1)C1=NCCCN1Cc1ccc(Cl)nc1 [Compound 53]	Aphis craccivoral	100
CCN=C(C(=Cc1ccc(Br)o1)[N+](=O)[O-])N(CC)Cc1ccc(Cl)nc1 [Compound 193]	Aphis craccivoral	89
C[N+]1=C(C(=Cc2cc(Br)c(Br)o2)[N+](=O)[O-])N(Cc2ccc(Cl)nc2)CC1.[Cl-] [Compound 253]	Aphis craccivoral	100
CC(=C(C1=NCCN1Cc1ccc(Cl)nc1)[N+](=O)[O-])c1cc(Cl)cs1 [Compound 120]	Aphis craccivoral	52
CN=C(C(=Cc1ccc(Br)o1)[N+](=O)[O-])N(C)Cc1ccc(Cl)nc1 [Compound 235]	Aphis craccivoral	91
O=[N+]([O-])C(=Cc1cc(Cl)cs1)C1=NCCN1Cc1ccc(Cl)nc1 [Compound 21]	Aphis craccivoral	100

Give the measured Aphis craccivoral Mortality (%) 500 ppm of O=[N+]([O-])C(=Cc1ccoc1)C1=NCCN1Cc1ccccc1 [Compound 104] .
96

Next up: CC(c1ccc(Cl)nc1)N1CCN=C1C(=Cc1ccco1)[N+](=O)[O-] (racemic) [Compound 121]
100

Next up: O=[N+]([O-])C(=Cc1cc(Br)co1)C1=NCCN1CC1CCOC1 (centres unmarked) [Compound 97]
76

Next up: CN=C(C(=Cc1ccsc1)[N+](=O)[O-])N(C)Cc1ccc(Cl)nc1 [Compound 167]
100

Next up: C[N+]1=C(C(=Cc2cc(Cl)cs2)[N+](=O)[O-])N(Cc2ccc(Cl)nc2)CC1.[Cl-] [Compound 264]
100

Next up: Cc1coc(C=C(C2=NCCN2Cc2ccc(Cl)nc2)[N+](=O)[O-])c1 [Compound 13]
100

Next up: CC[N+]1=C(C(=Cc2cccs2)[N+](=O)[O-])N(Cc2ccc(Cl)nc2)CC1.[Cl-] [Compound 291]
100

Next up: CN=C(C(=Cc1ccc[nH]1)[N+](=O)[O-])N(C)Cc1ccc(Cl)nc1 [Compound 240]
77

Next up: C[N+]1=C(/C(=C\c2ccc[nH]2)[N+](=O)[O-])N(Cc2cnc(Cl)s2)CC1.[Cl-] [Compound 284]
100

Next up: CC[N+]1=C(C(=Cc2ccc(Cl)s2)[N+](=O)[O-])N(Cc2ccc(Cl)nc2)CC1.[Cl-] [Compound 294]
100

Next up: C[N+]1=C(C(=Cc2ccoc2)[N+](=O)[O-])N(Cc2cnc(Cl)s2)CC1.[Cl-] [Compound 276]
100

---

- System: Plutella xylostella
- Assay Explanation: Insecticidal activities to diamondback moth, feeding dipped leaves
- Format: in vivo
- Stated Conditions: in vivo
- Description: Mortality (%)=(the number of the survival aphis in control group−the number of the survival aphis in the treatment group)/the number of the survival aphis in control group×100% (4): Insecticidal Activities to Diamondback Moth Diamondback moth (Plutella xylostella) was tested by the way of feeding dippedleaves. […] The number of killed insects was counted after 24 hours to calculate the mortality according to the above mentioned formula.
List of Plutella xylostella Mortality (%) 500 ppm values.
Just the number in %, nothing appended.

The cases that follow already have their Plutella xylostella Mortality (%) 500 ppm on record.
Molecule	Result
Cc1csc(C=C(C2=NCCN2Cc2ccc(Cl)nc2)[N+](=O)[O-])c1 [Compound 28]	100
O=[N+]([O-])C(=Cc1ccoc1)C1=NCCN1Cc1cnc(Cl)s1 [Compound 69]	100
CC(c1ccc(Cl)nc1)N1CCN=C1C(=Cc1ccsc1)[N+](=O)[O-] (racemic) [Compound 128]	100

Give the measured Plutella xylostella Mortality (%) 500 ppm of O=[N+]([O-])C(=Cc1ccc(Br)o1)C1=NCCN1CC1CCOC1 (stereo not drawn) [Compound 95] .
92

Next up: N#CC(=Cc1ccc(CO)o1)C1=NCCN1Cc1ccc(Cl)nc1 [Compound 145]
100

Next up: O=[N+]([O-])C(=Cc1ccoc1)C1=NCCN1Cc1ccccc1 [Compound 104]
81

---

- Tested on: Nilaparvata lugens
- Assay Explanation: Insecticidal activities to plant hopper, spraying method
- Type: in vivo
- Stated Conditions: in vivo
List of Nilaparvata lugens Mortality (%) 500 ppm values.
Just the number in %, nothing appended.

Give the measured Nilaparvata lugens Mortality (%) 500 ppm of CC[N+]1=C(C(=Cc2ccc([N+](=O)[O-])s2)[N+](=O)[O-])N(Cc2ccc(Cl)nc2)CC1.[Cl-] [Compound 293] .
100

---

- Tested on: Aphis craccivoral
- Assay Explanation: Insecticidal activities to aphids, immersion method
- Format: in vivo
- Stated Conditions: in vivo
List of Aphis craccivoral Mortality (%) 500 ppm values.
Just the number in %, nothing appended.

The cases that follow already have their Aphis craccivoral Mortality (%) 500 ppm on record.
Molecule	Units Symbol	Aphis craccivoral Mortality (%) 500 ppm
O=[N+]([O-])C(=Cc1ccc([N+](=O)[O-])s1)C1=NCCN1Cc1cnc(Cl)s1	%	100
CC[N+]1=C(C(=Cc2ccoc2)[N+](=O)[O-])N(Cc2ccc(Cl)nc2)CC1.[Cl-]	%	100
O=[N+]([O-])C(=Cc1ccc(Cl)o1)C1=NCCCN1Cc1ccc(Cl)nc1	%	100
O=[N+]([O-])C(=Cc1cc(Cl)c(Cl)o1)C1=NCCN1Cc1ccccc1	%	87
Cc1ccc(C=C(C2=NCCN2Cc2cnc(Cl)s2)[N+](=O)[O-])o1	%	100

Give the measured Aphis craccivoral Mortality (%) 500 ppm of CCc1ccc(C=C(C2=NCCN2Cc2cnc(Cl)s2)[N+](=O)[O-])o1 .
100

Next up: O=[N+]([O-])C(=Cc1cc(Br)c(Br)o1)C1=NCCN1Cc1ccc(Cl)nc1
100

Next up: Cc1coc(C=C(C2=[N+](C)CCN2Cc2ccc(Cl)nc2)[N+](=O)[O-])c1.[Cl-]
100

Next up: CCN=C(C(=Cc1ccc(Br)o1)[N+](=O)[O-])N(C)Cc1ccc(Cl)nc1
100
